Target: D(2) dopamine receptor (Homo sapiens) (UniProt P14416)
Sequence (P14416 whole entry, looked up): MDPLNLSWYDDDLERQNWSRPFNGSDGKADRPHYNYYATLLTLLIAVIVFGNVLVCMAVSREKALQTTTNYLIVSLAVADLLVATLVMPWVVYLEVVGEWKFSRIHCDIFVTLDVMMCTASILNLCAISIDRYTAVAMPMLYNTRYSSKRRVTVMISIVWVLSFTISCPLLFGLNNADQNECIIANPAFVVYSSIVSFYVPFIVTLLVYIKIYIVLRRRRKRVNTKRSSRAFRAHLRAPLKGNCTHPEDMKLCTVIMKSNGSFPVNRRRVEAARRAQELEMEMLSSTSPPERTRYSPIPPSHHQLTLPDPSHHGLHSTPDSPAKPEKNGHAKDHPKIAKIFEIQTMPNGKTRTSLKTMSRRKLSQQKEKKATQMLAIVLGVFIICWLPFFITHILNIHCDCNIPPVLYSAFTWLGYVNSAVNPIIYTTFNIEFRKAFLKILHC
Experiment: Dopamine D2 receptor (DRD2) small molecule antagonists, cell-based qHTS assay (AID 1963595); also: % is scaled to controls: 0 for no effect and ±100 for the full control effect
Conditions: HEK293-DRD2 cAMP HTRF antagonist mode; series mostly up to 92.4 µM
Inconclusive results are not listed. Activity calls are given as the source filed them. Calls follow the shape of the dose curve; as a rule, active = well fitted inhibition curve with a large enough effect in the signal ratio in the repeat runs, with a control signal flat; inconclusive = weak or mixed curves, or effect the other way; inactive = flat fitted curve, though single readings scatter; the % refers to the signal ratio.
Entries and their activity change, negative = inhibition

Study these solved cases before continuing.
INSERT INTO measurements (molecule, reported_result) VALUES
  ('CC(=O)OCC1=C(C(=O)O)N2C(=O)[C@@H](N)[C@H]2SC1', '7.52% [at 18.9 µM] (inactive)'),
  ('Clc1c(Cl)c(Cl)c(Cl)c(Cl)c1Cl', '-2.06% [at 8.38 µM] (inactive)');

Q: Please provide the recorded activity change, negative = inhibition for Cc1ccc2c(c1)C1CN(C)CCC1N2 (stereo not drawn) , tested on D(2) dopamine receptor (Homo sapiens) (UniProt P14416).
Result: -2.92% [at 18.9 µM] (inactive)

Q: Please provide the recorded activity change, negative = inhibition for `CCCCCCCCCCCCN=C(N)N` , tested on D(2) dopamine receptor (Homo sapiens) (UniProt P14416).
Result: -0.313% [at 3.28 µM] (inactive)

Q: Please provide the recorded activity change, negative = inhibition for `CC(=O)[O-].CC(=O)[O-].CC(=O)[O-].[Sb+3]` , tested on D(2) dopamine receptor (Homo sapiens) (UniProt P14416).
Result: -1.4% [at 3.28 µM] (inactive)

Q: Please provide the recorded activity change, negative = inhibition for `CC1=C(C(=O)O)N2C(=O)[C@@H](N)[C@H]2SC1` , tested on D(2) dopamine receptor (Homo sapiens) (UniProt P14416).
Result: -2.19% [at 18.9 µM] (inactive)

Q: Please provide the recorded activity change, negative = inhibition for `O=C1c2ccccc2C(=O)c2ccccc21` , tested on D(2) dopamine receptor (Homo sapiens) (UniProt P14416).
Result: -1.46% [at 18.9 µM] (inactive)

Q: Please provide the recorded activity change, negative = inhibition for `Cc1ccc2nc3sc(=O)sc3nc2c1` , tested on D(2) dopamine receptor (Homo sapiens) (UniProt P14416).
Result: 0.198% [at 18.9 µM] (inactive)
